Source of measurements: patent US20120094909A1

tested.target: T1, human PCSK9 (proprotein convertase subtilisin kexin type 9) (human, UniProt Q8NBP7 31-692)
T1 construct: Directly immobilized (SPR ProteOn), biotinylated (BLI), or in solution, depending on the assay; also called hPCSK9
T1 sequence (Q8NBP7 31-692 limits assumed): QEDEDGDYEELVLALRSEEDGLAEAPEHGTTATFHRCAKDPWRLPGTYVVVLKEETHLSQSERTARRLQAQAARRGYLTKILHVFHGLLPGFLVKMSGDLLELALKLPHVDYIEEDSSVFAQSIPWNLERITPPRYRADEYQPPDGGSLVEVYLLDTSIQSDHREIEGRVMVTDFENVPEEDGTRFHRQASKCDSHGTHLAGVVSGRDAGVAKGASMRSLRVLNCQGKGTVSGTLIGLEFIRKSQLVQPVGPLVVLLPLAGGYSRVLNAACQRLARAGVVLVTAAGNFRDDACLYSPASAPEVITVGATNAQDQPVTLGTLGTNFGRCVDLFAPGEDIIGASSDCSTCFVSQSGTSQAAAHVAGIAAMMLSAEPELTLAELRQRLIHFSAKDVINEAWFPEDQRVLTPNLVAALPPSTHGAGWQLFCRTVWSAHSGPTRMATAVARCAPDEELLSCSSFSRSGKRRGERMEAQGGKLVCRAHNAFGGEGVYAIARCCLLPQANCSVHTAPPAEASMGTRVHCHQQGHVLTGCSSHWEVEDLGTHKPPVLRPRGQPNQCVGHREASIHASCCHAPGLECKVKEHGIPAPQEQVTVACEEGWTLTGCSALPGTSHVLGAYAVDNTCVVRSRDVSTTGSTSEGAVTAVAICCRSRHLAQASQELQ
method.summary: SPR ProteOn, 25 C
quantity.name: Kd (pM)

P = 2011H05 (designed binder, Anti-PCSK9 Adnectin, His6-tagged; also called ATI001091) MGVSDVPRDLEVVAATPTSLLISWVPSSHAYGYYRITYGETGGNSPVQEFTVPVGVGTATISGLKPGVDYTITVYAVEYAFEGAGYYHRPISINYRTEIDKPSQHHHHHH
Q = 2012A04 (designed binder, Anti-PCSK9 Adnectin, His6-tagged) MGVSDVPRDLEVVAATPTSLLISWRPPSNGHGYYRITYGETGGNSPVQEFTVPVNEGTATISGLKPGVDYTITVYAVEFPFKWSGYYHRPISINYRTEIDKPSQHHHHHH
[ask] Given the listed items, does P or Q have the lesser reported Kd? Identify your pick by its label.
[reply] P
